Measured Emax of individual entries
# study_target: α6/3β2β3 nAChRs (Homo sapiens, UniProt Q15825)
# Sequence (Q15825 26-239 limits assumed): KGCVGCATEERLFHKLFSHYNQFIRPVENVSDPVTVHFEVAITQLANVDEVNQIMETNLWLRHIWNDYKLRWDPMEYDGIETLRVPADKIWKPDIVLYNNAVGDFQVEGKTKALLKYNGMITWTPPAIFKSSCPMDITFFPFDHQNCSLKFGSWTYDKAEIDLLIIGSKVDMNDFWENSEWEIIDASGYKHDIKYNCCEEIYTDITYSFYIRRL
# Sequence (P17787 26-238 limits assumed, further chain): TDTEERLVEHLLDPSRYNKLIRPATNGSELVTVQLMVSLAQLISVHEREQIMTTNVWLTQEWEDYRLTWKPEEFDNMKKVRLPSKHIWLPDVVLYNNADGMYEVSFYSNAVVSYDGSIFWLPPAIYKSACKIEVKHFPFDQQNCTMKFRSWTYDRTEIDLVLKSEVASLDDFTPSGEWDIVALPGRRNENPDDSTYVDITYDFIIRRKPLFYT
# Sequence (Q05901 22-237 limits assumed, further chain): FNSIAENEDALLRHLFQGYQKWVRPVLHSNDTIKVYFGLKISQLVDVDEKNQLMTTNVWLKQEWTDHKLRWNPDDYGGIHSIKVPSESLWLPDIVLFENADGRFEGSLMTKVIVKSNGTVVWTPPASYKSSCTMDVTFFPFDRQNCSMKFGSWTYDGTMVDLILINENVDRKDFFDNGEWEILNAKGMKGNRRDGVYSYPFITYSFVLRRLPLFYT
# assay_details: cell-based
# conditions: read-out: Agonist Effect Emax
measurement_label: Emax (%)

[
  {
    "compound": "CN1CCCC1c1cccnc1 (stereo not shown) [Ref. nicotine (Sigma-Aldrich), nicotine]",
    "measurement_label": "Emax",
    "u": "%",
    "assay_value": 100
  },
  {
    "compound": "CN1CCC[C@@H]1c1cccnc1 [Synthetic R nicotine, R nicotine]",
    "measurement_label": "Emax",
    "u": "%",
    "assay_value": 70
  },
  {
    "compound": "CN1CCC[C@H]1c1cccnc1 [Synthetic S nicotine, S nicotine]",
    "measurement_label": "Emax",
    "u": "%",
    "assay_value": 97
  },
  {
    "compound": "CN1CCCC1c1cccnc1 (racemic) [Synthetic RS racemic nicotine, RS-Nicotine]",
    "measurement_label": "Emax",
    "u": "%",
    "assay_value": 91
  }
]

Reference source for all entries: patent US10610526B2
